- study_system: human glucagon receptor (human, UniProt P47871 26-477)
- Sequence (P47871 26-477): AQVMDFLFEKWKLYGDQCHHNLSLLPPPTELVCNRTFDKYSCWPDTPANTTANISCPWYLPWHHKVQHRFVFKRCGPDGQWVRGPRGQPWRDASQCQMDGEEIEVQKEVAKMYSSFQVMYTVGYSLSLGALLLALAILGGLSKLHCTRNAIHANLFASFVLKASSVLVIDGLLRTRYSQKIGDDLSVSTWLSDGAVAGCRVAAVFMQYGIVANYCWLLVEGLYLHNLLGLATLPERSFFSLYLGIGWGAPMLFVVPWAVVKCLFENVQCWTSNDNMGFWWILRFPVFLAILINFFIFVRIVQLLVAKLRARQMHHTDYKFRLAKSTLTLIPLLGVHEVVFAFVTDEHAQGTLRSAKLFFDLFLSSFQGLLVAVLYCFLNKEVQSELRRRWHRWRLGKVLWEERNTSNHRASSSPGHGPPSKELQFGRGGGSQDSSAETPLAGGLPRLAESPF
- assay_procedure: cell-based or functional assay
readout_type: GCG-R EC50 in vitro [nM] (cAMP, AlphaScreen, HEK293 cells expressing human Glucagon-R) (nM)
Give the value, in units of nM, as a plain number.

Answered cases to consult:
Query (binder): H-HSQGTFTSDYSKYLESARAESFVKWLEST-OH [Compound 16] ; field requested: GCG-R EC50 in vitro [nM] (cAMP, AlphaScreen, HEK293 cells expressing human Glucagon-R)
0.39

Another binder to check: H-HSQGTFTSDYSKYLDSARAESFVKWLEST-OH [Compound 1]
0.064

Next binder up: H-HSQGTFTSDYSKYLDVARAESFVKWLEST-OH [Compound 19]
0.054

Continuing:
GCG-R EC50 in vitro [nM] (cAMP, AlphaScreen, HEK293 cells expressing human Glucagon-R) for H-HSQGTFTSDYSKYLDSARAEDFVEWLEST-OH [Compound 6] ?
1

Also H-HSQGTFTSDYSKYLDSARAEEFVKWLEST-OH [Compound 9] ?
0.03

Now the same for H-HSQGTFTSDYSKYLDLARAEDFVKWLEST-OH [Compound 17]
0.029
